Please go through the items and note down their pIC50.
Target: KRAS G13D (Homo sapiens, UniProt P01116+P62937, G13D)
Sequence (P01116 1-169 isoform P01116-2 G13D limits assumed): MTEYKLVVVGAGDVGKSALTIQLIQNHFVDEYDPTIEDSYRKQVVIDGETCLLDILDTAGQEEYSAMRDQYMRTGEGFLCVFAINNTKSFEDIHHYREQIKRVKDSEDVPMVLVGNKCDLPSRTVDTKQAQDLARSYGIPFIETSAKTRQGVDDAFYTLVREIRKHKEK
Sequence (P62937 whole entry): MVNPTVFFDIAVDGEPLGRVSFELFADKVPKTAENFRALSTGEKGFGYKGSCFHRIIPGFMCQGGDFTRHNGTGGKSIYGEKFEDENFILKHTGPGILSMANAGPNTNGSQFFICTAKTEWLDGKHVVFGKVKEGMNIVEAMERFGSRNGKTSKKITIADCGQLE
Assay: Ras-Raf disruption / FRET / MOA assay (BRAF RBD)
Format: biochemical
Details: KRAS G13D FRET data IC50, Ras-Raf disruption, with Cyclophilin A
pIC50: −log10 of the molar value.

Identify the measured pIC50 of CCn1c(-c2cccnc2[C@H](C)OC)c2c3cc(ccc31)-c1cc(O)cc(c1)C[C@H](NC(=O)[C@H](C(C)C)N(C)C(=O)CN(C)C(=O)[C@@H]1CN1CCCOC)C(=O)N1CCC[C@H](N1)C(=O)OCC(C)(C)C2 (stereo partly shown) [Example 137] for KRAS G13D (Homo sapiens, UniProt P01116+P62937, G13D).
7.00 to 8.00

Identify the measured pIC50 of CCn1c(-c2cccnc2[C@H](C)OC)c2c3cc(ccc31)-c1csc(n1)C[C@H](NC(=O)[C@H](C1CCCC1)N(C)C(=O)CN(C)C(=O)[C@@H]1N[C@@H]1C1CC1)C(=O)N1CCC[C@H](N1)C(=O)OCC(C)(C)C2 [Example 210] for KRAS G13D (Homo sapiens, UniProt P01116+P62937, G13D).
5.00 to 6.00

Identify the measured pIC50 of CCn1c(-c2cccnc2[C@H](C)OC)c2c3cc(ccc31)-c1cc(O)cc(c1)C[C@H](NC(=O)[C@H](C(C)C)N(C)C(=O)CN(C)C(=O)[C@@H]1CN1CCCOC(C)=O)C(=O)N1CCC[C@H](N1)C(=O)OCC(C)(C)C2 (stereo partly shown) [Example 267] for KRAS G13D (Homo sapiens, UniProt P01116+P62937, G13D).
6.00 to 7.00

Identify the measured pIC50 of CCn1c(-c2cccnc2[C@H](C)OC)c2c3cc(ccc31)-c1cc(O)cc(c1)C[C@H](NC(=O)[C@H](C(C)C)N(C)C(=O)CN(C)C(=O)[C@H]1CN1CC(=O)N(C)C)C(=O)N1CCC[C@H](N1)C(=O)OCC(C)(C)C2 (stereo partly shown) [Example 270] for KRAS G13D (Homo sapiens, UniProt P01116+P62937, G13D).
6.00 to 7.00
